# Target under test: Ataxin-2 (Homo sapiens)
# Test protocol: qHTS for Inhibitors of ATXN expression.
# Format: functional
Out of some 400,000 compounds screened, about 2,100 (0.53%) were called active. About 14% were inconclusive and are not listed. No rule for the calls is given here. For the sample, actives were picked, then their nearest neighbours and some compounds at random.
Thanks in advance; please answer with one of these: active, inactive

Dear all, I need the recorded test outcome for Cc1c(NS(=O)(=O)c2cc([N+](=O)[O-])ccc2Cl)c(=O)n(-c2ccccc2)n1C , thank you.
inactive

Next record, please: CCn1ccc2c(OCC(=O)Nc3ccc(C)c(Cl)c3)cccc2c1=O
active

Next record, please: COC(=O)Cc1c(C)c2ccc3c(c2oc1=O)CN(Cc1ccc(Cl)cc1)CO3
inactive

Next record, please: CC(C)(C)C(=O)Nc1nc2c(s1)CN(Cc1ccccc1)CC2
inactive

Next record, please: COC(=O)COc1cccc2c(=O)n(CC(=O)N3CCCCC3)ccc12
inactive

Next record, please: Cc1cccc(NC(=O)CSc2nc3ccc(NC(=O)c4ccco4)cc3s2)c1
active

Next record, please: CC(C)(C)C(=O)Nc1ccc2nc(SCc3ccccc3)sc2c1
active

Next record, please: COc1ccc(NC(=O)CCC(=O)NCc2ccco2)c([N+](=O)[O-])c1
inactive

Next record, please: CC(=O)Nc1ccc(O)c(-c2nc3ccccc3s2)c1
inactive

Next record, please: CC(=O)Nc1scc(C)c1-c1nc2ccccc2s1
inactive

Next record, please: CC(=O)Nc1nn(CC(C)C)c2nc3ccc(C)cc3cc12
inactive

Next record, please: N#Cc1ccc(NC(=O)CSc2nc3nc(O)cc(O)c3s2)cc1
inactive

Next record, please: CC(=O)Nc1ccc(/C(C)=N/Nc2nc(N3CCOCC3)nc(N3CCOCC3)n2)cc1
inactive

Next record, please: N#Cc1cc2c(nc1SCC(=O)Nc1nccs1)CCCCC2
inactive

Next record, please: CCC(=O)NC1=C(Cl)C(=O)C(NC(=O)CC)=C(Cl)C1=O
active

Next record, please: CC(=O)OCCCNc1cc(Sc2nc3ccccc3s2)c2nonc2c1[N+](=O)[O-]
active

Next record, please: COC(=O)C1=NN(c2ccc(C)cc2)C2C(=O)N(c3ccccc3OC)C(=O)C12 (configuration not stated)
inactive

Next record, please: O=CNc1ccc2c3c(cccc13)-c1ccccc1-2
inactive

Next record, please: CCCc1c(C(=O)N/N=C/c2c[nH]c3ccccc23)nnn1-c1nonc1N
inactive

Next record, please: Cc1nnc(Sc2cc(NCCCO)c([N+](=O)[O-])c3nonc23)s1
active

Next record, please: Cc1oc2c(c1C(=O)c1ccccc1)C(=O)C(=O)c1ccccc1-2
active

Next record, please: COc1ccc(NC(=O)CSc2nc3ccc(Nc4nc(N5CCOCC5)nc(N5CCOCC5)n4)cc3s2)cc1
active

###

# Target under test: Ataxin-2 (Homo sapiens) (UniProt Q99700)
# Sequence (Q99700 whole entry): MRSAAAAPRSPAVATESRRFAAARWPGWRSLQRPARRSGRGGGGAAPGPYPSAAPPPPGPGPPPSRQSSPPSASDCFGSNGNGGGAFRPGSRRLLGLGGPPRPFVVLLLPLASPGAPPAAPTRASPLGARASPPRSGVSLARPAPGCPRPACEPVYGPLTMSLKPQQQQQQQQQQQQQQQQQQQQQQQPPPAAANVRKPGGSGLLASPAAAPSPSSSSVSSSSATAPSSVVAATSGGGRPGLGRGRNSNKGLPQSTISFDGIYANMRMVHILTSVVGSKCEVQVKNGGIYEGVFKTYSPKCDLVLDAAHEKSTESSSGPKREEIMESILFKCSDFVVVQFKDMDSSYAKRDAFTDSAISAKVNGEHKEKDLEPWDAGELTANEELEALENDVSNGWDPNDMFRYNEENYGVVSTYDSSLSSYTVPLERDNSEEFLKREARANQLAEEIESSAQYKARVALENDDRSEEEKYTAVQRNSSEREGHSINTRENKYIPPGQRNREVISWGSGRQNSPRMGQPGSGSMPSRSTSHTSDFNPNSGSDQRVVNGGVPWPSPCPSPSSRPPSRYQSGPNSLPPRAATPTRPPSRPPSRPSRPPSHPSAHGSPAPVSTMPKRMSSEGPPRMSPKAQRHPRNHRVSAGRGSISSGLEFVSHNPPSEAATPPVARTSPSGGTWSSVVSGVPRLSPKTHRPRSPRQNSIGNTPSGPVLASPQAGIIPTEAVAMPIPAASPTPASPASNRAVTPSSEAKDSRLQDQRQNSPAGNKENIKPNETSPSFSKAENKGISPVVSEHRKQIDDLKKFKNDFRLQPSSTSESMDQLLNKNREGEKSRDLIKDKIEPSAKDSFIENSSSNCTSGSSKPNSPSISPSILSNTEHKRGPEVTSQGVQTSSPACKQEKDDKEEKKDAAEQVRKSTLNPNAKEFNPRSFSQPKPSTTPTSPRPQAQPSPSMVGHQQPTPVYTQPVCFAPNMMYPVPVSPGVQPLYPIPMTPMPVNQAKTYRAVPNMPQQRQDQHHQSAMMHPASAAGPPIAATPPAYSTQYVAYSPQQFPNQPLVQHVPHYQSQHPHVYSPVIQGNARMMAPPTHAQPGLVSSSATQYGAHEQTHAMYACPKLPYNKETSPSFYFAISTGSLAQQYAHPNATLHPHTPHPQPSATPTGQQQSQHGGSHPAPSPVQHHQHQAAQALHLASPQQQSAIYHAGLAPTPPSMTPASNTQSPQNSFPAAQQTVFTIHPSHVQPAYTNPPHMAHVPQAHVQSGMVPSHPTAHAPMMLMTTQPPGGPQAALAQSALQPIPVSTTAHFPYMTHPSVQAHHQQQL
# Test protocol: qHTS for Inhibitors of ATXN expression.
# Assay type: functional
The whole screen tested about 400,000 compounds, of which about 2,100 (0.53%) were called active. Roughly 14% stayed inconclusive and do not appear here. The rule behind the calls is not given here. This excerpt belongs to a sample that is enriched for actives.
Thanks in advance; please answer with one of these: true = active, false = inactive

Dear all, I need the recorded test outcome for CC(C)C[C@H](NC(=O)c1[nH]cnc1C(=O)Nc1ccc(CNC(=O)OC(C)(C)C)cc1)C(=O)OC(C)(C)C , thank you.
true

Next record, please: CC(C)(C)OC(=O)[C@H](Cc1ccccc1)NC(=O)c1[nH]cnc1C(=O)Nc1ccc(Cl)cc1
true

Next record, please: CCN1CCSc2ccc(C(=O)NCc3ccccc3F)cc21
false

Next record, please: O=C(NCCCN1CCOCC1)/C(=C/c1cccnc1)NC(=O)c1ccccc1
false

Next record, please: O=C(CN1C(=O)NC2(CCOc3ccccc32)C1=O)Nc1ccc(F)c(F)c1F (stereo unspecified)
false

Next record, please: Cc1cnc(-n2ncc(C(=O)N3CCN(C(C)C)CC3)c2-c2ccco2)nc1-c1ccc(F)cc1
false

Next record, please: Cc1cc(C)c2c(N)c(C(=O)NN3CC(=O)N(c4cccc(Cl)c4)CC3=O)sc2n1
false

Next record, please: CC(C)N(C(=O)[C@H]1CC(CC(=O)NCc2cccc(C(F)(F)F)c2)C(=O)N2CCc3c([nH]c4ccccc34)[C@]12C)C(C)C (stereo partly specified)
true

Next record, please: COCCN1C=C(C(=O)OC)C(c2ccccc2Cl)C(C(=O)OC)=C1
false

Next record, please: CC(C)C[C@H](NC(=O)c1[nH]cnc1C(=O)N[C@@H](C)C(=O)OC(C)(C)C)C(=O)OC(C)(C)C
true

Next record, please: O=C(NCCc1ccc(Cl)cc1)c1ccc2c(c1)N(Cc1ccc(F)cc1Cl)C(=O)CS2
true

Next record, please: C/C(=N/NC(=O)c1sc(NS(=O)(=O)c2ccc(C)cc2)nc1C)c1sc(N)nc1C
false

Next record, please: CC(=O)Oc1cc2oc(=O)cc(C)c2cc1Cl
false

Next record, please: CCC(=O)Nc1c(-c2ccccc2)c(=O)c2ccccc2n1C
false

Next record, please: COC(=O)Cc1c(C)c2ccc3c(c2oc1=O)CN(Cc1ccccc1OC)CO3
false

Next record, please: CCOC(=O)c1cc2c(=O)n3ccccc3nc2n(Cc2ccco2)/c1=N\C(=O)c1cccc(C)c1
false

Next record, please: Cc1ccc(C(=O)c2c(C)oc3c2C(=O)C(=O)c2ccccc2-3)cc1
true

Next record, please: C=C1C(=O)O[C@@H]2C[C@@H](C)[C@@H]3C=CC(=O)[C@@]3(C)[C@@H](OC(C)=O)[C@H]12
true

Next record, please: CC(=O)Nc1nc2n(n1)C(c1ccccc1)C=C(c1ccccc1)N2 (stereo unspecified)
false

Next record, please: CCOC(=O)c1cc2c(=O)n3ccccc3nc2n(Cc2ccco2)/c1=N\C(=O)c1cccc(F)c1
false

Next record, please: COC(=O)C1=CN(C(C)C)C=C(C(=O)OC)C1c1cccc(OC)c1
false

Next record, please: C#CCOCCOCCOCCNc1nc(N2CCN(C(=O)CCCCCCCCCCNC(=O)[C@H](CCCCN)n3cc(C)nn3)CC2)nc(N2CCN(C(=O)CCCCCCCCCCNC(=O)[C@@H]([C@H](C)O)n3cc(C)nn3)CC2)n1
true

Next record, please: CC(C)C[C@H](NC(=O)c1[nH]cnc1C(=O)N[C@@H](C)c1ccccc1)C(=O)OCc1ccccc1
true

Next record, please: CC[n+]1c(/C=C2\SC(c3ccccc3C)=CN2C)sc2ccccc21
false

Next record, please: Cc1[nH]c2ccccc2c1C(c1ccccc1)c1cccs1 (stereo unspecified)
true

Next record, please: Cc1ccc(/C=N/Nc2ccc3ccccc3n2)o1
false

Next record, please: CNC(=O)OCc1nc(SSC(C)(C)C)n(C)c1COC(=O)NC
true

Next record, please: O=C1c2ccccc2-c2ncnc3c(N4CCOCC4)cc(N4CCOCC4)c1c23
true

Next record, please: CCOC(=O)C1CCCN(CC(=O)Nc2nc(-c3ccccc3)cs2)C1 (stereo unspecified)
false

Next record, please: CCOC(=O)c1c(CC(C)C)csc1NC=C1C(=O)CCCC1=O
true

Next record, please: COc1cc2ccccc2cc1C(=O)Nc1ccc(O)cc1
false

Next record, please: Cc1[nH]c2ccccc2c1C(O)CN1CCC2(CC1)OCCO2 (stereo unspecified)
false

Next record, please: CCc1cc(=O)oc2cc(OC(=O)CN3C(=O)NC4(CCCC4)C3=O)ccc12
false

Next record, please: Cc1cc(C)cc(CC2CC(=O)N(c3cc(C)ccc3C)C2=O)c1 (stereo unspecified)
false

Next record, please: COc1ccc(C)cc1NC(=O)c1sc2ncnc(N3CCN(c4ccccn4)CC3)c2c1C
false

Next record, please: COCCOC(=O)c1c(N)n(CCCN2CCOCC2)c2nc3ccccc3nc12
false

Next record, please: CCOC(=O)c1sc2ncnc(N3CCN(C)CC3)c2c1C
false

Next record, please: Oc1ccc(C23CC4CC(CC(C4)C2)C3)cc1O
true

Next record, please: COc1ccc(C(=O)c2c(N)sc3c2CCN(C(=O)OC(C)(C)C)C3)cc1
false

Next record, please: COc1ccc(OC)c2cc3ccccc3cc12
true

Next record, please: CCc1ccc(C(c2ccccc2)c2c(C)[nH]c3ccccc23)s1 (stereo unspecified)
true
